Data credit: paper PMC5449446

- Target Under Test: PcaY_PP-LBD (Pseudomonas putida, UniProt Q88JK6)
- Construct: His-tag (from the pET28b vector; inferred from NdeI/BamHI cloning and HisTrap purification) (N); made in house; host or cells: Escherichia coli BL21 (DE3)
- Sequence (Q88JK6 44-196): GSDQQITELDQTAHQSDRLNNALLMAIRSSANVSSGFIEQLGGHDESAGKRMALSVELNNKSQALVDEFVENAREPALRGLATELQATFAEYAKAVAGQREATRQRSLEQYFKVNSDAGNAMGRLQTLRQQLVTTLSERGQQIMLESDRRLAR
- Test: biochemical
- Format: binding, Pseudomonas putida KT2440
- Condition Summary: ITC
Property Measured: ∆G (kcal/mol)
Give bare numbers, in kcal/mol.

Answered cases to consult:
>  <Molecule>
O=C(O)[C@]1(O)C[C@@H](O)[C@@H](O)[C@H](O)C1 [Quinate, quinate]

>  <Target Under Test>
PcaY_PP-LBD (Pseudomonas putida, UniProt Q88JK6)

>  <Units Symbol>
kcal/mol

>  <∆G>
-7.40

$$$$
>  <Molecule>
O=C(O)c1ccc(O)c(O)c1 [Protocatechuate, protocatechuate]

>  <Target Under Test>
PcaY_PP-LBD (Pseudomonas putida, UniProt Q88JK6)

>  <Units Symbol>
kcal/mol

>  <∆G>
-7.08

$$$$
>  <Molecule>
O=C(O)c1ccc([N+](=O)[O-])cc1 [4-NBA, 4-Nitrobenzoate]

>  <Target Under Test>
PcaY_PP-LBD (Pseudomonas putida, UniProt Q88JK6)

>  <Units Symbol>
kcal/mol

>  <∆G>
-5.86

$$$$

Batch lookup, ∆G per entry.
1. O=C(O)C1=CC(=O)C(O)C(O)C1 (stereo not shown) [3-Dehydroshikimate, 3-dehydroshikimate]
2. O=C(O)c1cccc([N+](=O)[O-])c1 [3-NBA, 3-Nitrobenzoate]

-- reply
1: -7.11; 2: -5.74

Batch lookup, ∆G per entry.
1. O=C(O)c1ccccc1O [2-HBA, 2-hydroxybenzoate]
2. Nc1ccccc1C(=O)O [2-ABA, 2-Aminobenzoate]
3. O=C(O)c1cccc(Cl)c1 [3-CBA, 3-chlorobenzoate]

-- reply
1. -6.30
2. -5.52
3. -6.09

* * *

Hi there, I'd appreciate the recorded pKd for every entry that follows.
- Target Under Test: PcaY_PP-LBD (Pseudomonas putida)
- Construct: His-tag (from the pET28b vector; inferred from NdeI/BamHI cloning and HisTrap purification) (N)
- Test: biochemical
- Procedure: Experiments were carried out at 25°C using a VP-ITC titration calorimeter (Microcal Inc., Northampton, Massachusetts). […] Obtained data were corrected with the heat changes measured for the injection of ligand into buffer. Data were normalized with the protein concentration (Bradford assay) and fitted with the “One Binding Site” model of the MicroCal version of the ORIGIN 7.0 software (OriginLab Corporation, Northampton, MA, United States), leaving all parameters floating.
Answers are plain numbers, as −log10 of the molar value.

Answered cases to consult:
>  <Molecule>
COc1cc(C(=O)O)ccc1O [Vanillate, vanillate]

>  <Target Under Test>
PcaY_PP-LBD (Pseudomonas putida)

>  <pKd>
4.96

$$$$
>  <Molecule>
O=C(O)c1ccccc1O [2-HBA, 2-hydroxybenzoate]

>  <Target Under Test>
PcaY_PP-LBD (Pseudomonas putida)

>  <pKd>
4.62

$$$$
>  <Molecule>
O=C(O)c1ccc(O)cc1 [4-HBA, 4-hydroxybenzoate]

>  <Target Under Test>
PcaY_PP-LBD (Pseudomonas putida)

>  <pKd>
5.14

$$$$
>  <Molecule>
O=C(O)c1cccc([N+](=O)[O-])c1 [3-NBA, 3-Nitrobenzoate]

>  <Target Under Test>
PcaY_PP-LBD (Pseudomonas putida)

>  <pKd>
4.21

$$$$
>  <Molecule>
Cc1cccc(C(=O)O)c1 [3-MBA, 3-Methylbenzoate]

>  <Target Under Test>
PcaY_PP-LBD (Pseudomonas putida)

>  <pKd>
4.49

$$$$

Kindly review the next molecule as well.
-- ask # query: pKd of entry O=C(O)c1ccc(O)c(O)c1 [Protocatechuate, protocatechuate]
-- reply 5.19

* * *

- Target Under Test: PcaY_PP-LBD (Pseudomonas putida, UniProt Q88JK6)
- Construct: His-tag (from the pET28b vector; inferred from NdeI/BamHI cloning and HisTrap purification) (N); made in house; host or cells: Escherichia coli BL21 (DE3)
- Test: biochemical
- Type: binding, Pseudomonas putida KT2440
- Protocol: Experiments were carried out at 25°C using a VP-ITC titration calorimeter (Microcal Inc., Northampton, Massachusetts). […] Obtained data were corrected with the heat changes measured for the injection of ligand into buffer. Data were normalized with the protein concentration (Bradford assay) and fitted with the “One Binding Site” model of the MicroCal version of the ORIGIN 7.0 software (OriginLab Corporation, Northampton, MA, United States), leaving all parameters floating.
Property Measured: Kd (µM)
Numbers only, in µM.

>  <Molecule>
O=C(O)c1ccccc1 [Benzoate, benzoate]

>  <Target Under Test>
PcaY_PP-LBD (Pseudomonas putida, UniProt Q88JK6)

>  <Experimental Result>
90

$$$$
>  <Molecule>
O=C(O)c1cccc(Cl)c1 [3-CBA, 3-chlorobenzoate]

>  <Target Under Test>
PcaY_PP-LBD (Pseudomonas putida, UniProt Q88JK6)

>  <Experimental Result>
34

$$$$
>  <Molecule>
Cc1ccc(C(=O)O)cc1 [4-MBA, 4-Methylbenzoate]

>  <Target Under Test>
PcaY_PP-LBD (Pseudomonas putida, UniProt Q88JK6)

>  <Experimental Result>
41

$$$$
>  <Molecule>
Nc1ccccc1C(=O)O [2-ABA, 2-Aminobenzoate]

>  <Target Under Test>
PcaY_PP-LBD (Pseudomonas putida, UniProt Q88JK6)

>  <Experimental Result>
89

$$$$
>  <Molecule>
O=C(O)C1=CC(O)C(O)C(O)C1 (stereo not shown) [Shikimate, shikimate]

>  <Target Under Test>
PcaY_PP-LBD (Pseudomonas putida, UniProt Q88JK6)

>  <Experimental Result>
4.4

$$$$

Batch lookup, Kd per entry.
1. O=C(O)c1ccc([N+](=O)[O-])cc1 [4-NBA, 4-Nitrobenzoate]
2. Nc1ccc(C(=O)O)cc1 [4-ABA, 4-aminobenzoate]
3. O=C(O)C1=CC(=O)C(O)C(O)C1 (stereo not shown) [3-Dehydroshikimate, 3-dehydroshikimate]
4. Nc1cccc(C(=O)O)c1 [3-ABA, 3-aminobenzoate]
5. O=C(O)[C@]1(O)C[C@@H](O)[C@@H](O)[C@H](O)C1 [Quinate, quinate]

-- reply
[50, 98, 6, 138, 3.7]

* * *

- Target Under Test: PcaY_PP-LBD (Pseudomonas putida, UniProt Q88JK6)
- Construct: His-tag (from the pET28b vector; inferred from NdeI/BamHI cloning and HisTrap purification) (N); made in house; host or cells: Escherichia coli BL21 (DE3)
- Test: biochemical
- Format: binding, Pseudomonas putida KT2440
- Condition Summary: ITC at 25°C, 25 μM protein, One Binding Site model; means and SD of three experiments
Property Measured: KD

Answered cases to consult:
>  <Compound>
O=C(O)c1ccccc1Cl [2-CBA, 2-chlorobenzoate]

>  <KD>
No binding

$$$$
>  <Compound>
O=C(O)c1ccccc1[N+](=O)[O-]

>  <KD>
No binding

$$$$
>  <Compound>
O=C(O)CCC(=O)O [Succinate, succinate]

>  <KD>
did not show any binding

$$$$
>  <Compound>
O=C(O)CC(O)C(=O)O (stereo not shown) [Malate, malate]

>  <KD>
did not show any binding

$$$$
>  <Compound>
Cc1ccccc1C(=O)O

>  <KD>
No binding

$$$$
>  <Compound>
O=C(O)c1cccc(O)c1 [3-HBA, 3-hydroxybenzoate]

>  <KD>
No Binding

$$$$

Batch lookup, KD per entry.
1. COc1cc(C=O)ccc1O
2. O=Cc1ccc(O)cc1 [4-Hbenzaldehyde, 4-hydroxybenzaldehyde]
3. O=C(O)/C=C(/CC(=O)O)C(=O)O [cis-aconitate]
4. O=C(O)CCCCC(=O)O [Adipate, adipate]

-- reply
["No binding", "No Binding", "did not show any binding", "No binding"]

* * *

Hi there, I'd appreciate the recorded ∆H for every entry that follows.
- Target Under Test: PcaY_PP-LBD (Pseudomonas putida, UniProt Q88JK6)
- Construct: His-tag (from the pET28b vector; inferred from NdeI/BamHI cloning and HisTrap purification) (N); made in house; host or cells: Escherichia coli BL21 (DE3)
- Test: biochemical
- Assay type: binding, Pseudomonas putida KT2440
- Condition Summary: ITC
One number for each entry, in kcal/mol.

Answered cases to consult:
>  <Compound>
Nc1ccc(C(=O)O)cc1 [4-ABA, 4-aminobenzoate]

>  <Property Measured>
∆H

>  <Units Symbol>
kcal/mol

>  <Experimental Result>
-11.0

$$$$
>  <Compound>
O=C(O)C1=CC(O)C(O)C(O)C1 (stereo not shown) [Shikimate, shikimate]

>  <Property Measured>
∆H

>  <Units Symbol>
kcal/mol

>  <Experimental Result>
-16.6

$$$$
>  <Compound>
O=C(O)c1ccc(O)c(O)c1 [Protocatechuate, protocatechuate]

>  <Property Measured>
∆H

>  <Units Symbol>
kcal/mol

>  <Experimental Result>
-22.9

$$$$
>  <Compound>
COc1cc(C(=O)O)ccc1O [Vanillate, vanillate]

>  <Property Measured>
∆H

>  <Units Symbol>
kcal/mol

>  <Experimental Result>
-12.8

$$$$

Batch lookup, ∆H per entry.
1. Cc1cccc(C(=O)O)c1 [3-MBA, 3-Methylbenzoate]
2. O=C(O)c1ccc([N+](=O)[O-])cc1 [4-NBA, 4-Nitrobenzoate]

-- reply
1: -21.9; 2: -13.8

Batch lookup, ∆H per entry.
1. O=C(O)c1ccc(O)cc1 [4-HBA, 4-hydroxybenzoate]
2. Cc1ccc(C(=O)O)cc1 [4-MBA, 4-Methylbenzoate]
3. Nc1ccccc1C(=O)O [2-ABA, 2-Aminobenzoate]
4. Nc1cccc(C(=O)O)c1 [3-ABA, 3-aminobenzoate]
5. O=C(O)C1=CC(=O)C(O)C(O)C1 (stereo not shown) [3-Dehydroshikimate, 3-dehydroshikimate]

-- reply
1: -33.2; 2: -13.2; 3: -18.0; 4: -16.4; 5: -19.9

Batch lookup, ∆H per entry.
1. O=C(O)c1ccccc1O [2-HBA, 2-hydroxybenzoate]
2. O=C(O)c1cccc(Cl)c1 [3-CBA, 3-chlorobenzoate]
3. O=C(O)[C@]1(O)C[C@@H](O)[C@@H](O)[C@H](O)C1 [Quinate, quinate]
4. O=C(O)c1ccccc1 [Benzoate, benzoate]

-- reply
1: -21.0; 2: -13.2; 3: -13.2; 4: -13.3

-- ask Lab note: need ∆H with PcaY_PP-LBD (Pseudomonas putida, UniProt Q88JK6) for entry O=C(O)c1cccc([N+](=O)[O-])c1 [3-NBA, 3-Nitrobenzoate] , please look it up.
-- reply -17.5
